# test-summary: Drug level in Sprague-Dawley rat brain at 30 mg/kg, po after 4 hrs
# Assay type: ADME, organism-based
# Parameters: dose 30 mg/kg, route oral
# test-conditions: read-out: Drug uptake
readout-label: concentration at 4 h

Entry under test: Cc1ccc(-c2ncc(C(=O)NCCCc3ccccc3)nc2-c2ccc(C)cc2)cc1 . Its concentration at 4 h was 34 nM

###

Please provide measured Tmax for the entries that follow.
# test-summary: Average Tmax in Sprague-Dawley rat at 10 mg/kg, po
# Format: ADME, organism-based
# Design: dose 10 mg/kg, route oral
# test-conditions: in vivo
Numbers only, in h.

{"columns": ["query-smiles", "numeric-value"],
 "data": [
  ["Cc1ccc(-c2ncc(C(=O)N[C@H](CO)CC(C)C)nc2-c2ccc(C)cc2)cc1", 1]
]}

# context switch: different compound, same Tmax
Entry under test: CC(C)C[C@@H](CO)NC(=O)c1cnc(-c2ccc(Cl)cc2)c(-c2ccc(Cl)cc2)n1 . Its Tmax was 1
